# Subject of test: Fibroblast growth factor 2 (Homo sapiens)
# Method: FGF2 binders on small-molecule microarrays, primary screen, biochemical, small-molecule microarray, 635/667 nm fluorescence (AID 1133)
# Conditions used: small-molecule microarray binding, FGF2, fluorescence 635/667; higher = more signal
Use 1 when the recorded composite z-score is no lower than -0.4; use 0 when it is lower.

Query block: Textbook exercise: given the entry Cc1ccc(S[C@]2(C(=O)NCC(F)(F)F)CC(=O)N(Cc3ccccc3)[C@@H]2c2ccc(CO)cc2)cc1 , state whether its composite z-score is greater than or equal to -0.4.
Result block: 0

Query block: Textbook exercise: given the entry COCCCNC(=O)[C@@H]1c2ccccc2C(=O)N(Cc2ccccc2C(F)(F)F)[C@H]1c1ccc(CO)cc1 , state whether its composite z-score is greater than or equal to -0.4.
Result block: 1

Query block: Textbook exercise: given the entry CN1C(=O)C2C=CC(C(O)Cc3ccccc3)N(N(c3ccccc3)c3ccccc3)C2C1=O (stereo not drawn) , state whether its composite z-score is greater than or equal to -0.4.
Result block: 0

Query block: Textbook exercise: given the entry COc1ccc(CCNC(=O)[C@@]2(Sc3ccc(C)cc3)CC(=O)N(Cc3cc(C(F)(F)F)cc(C(F)(F)F)c3)[C@@H]2c2ccc(CO)cc2I)cc1 , state whether its composite z-score is greater than or equal to -0.4.
Result block: 0

Query block: Textbook exercise: given the entry C=C(CCCC)/C(=C/C[C@@H](OC(=O)c1ccncc1)c1cccc(OCCO)c1)c1cnc2ccccc2c1 , state whether its composite z-score is greater than or equal to -0.4.
Result block: 1

Query block: Textbook exercise: given the entry CN(C)C(=O)[C@@]1(Cc2ccccc2N=[N+]=[N-])COC(c2ccc(OCCCO)cc2)=N1 , state whether its composite z-score is greater than or equal to -0.4.
Result block: 1

Query block: Textbook exercise: given the entry COC(=O)[C@@]1(Cc2ccc(OC)cc2)[C@H]2c3cc(C(=O)N(C)C)n(Cc4nc5ccccc5[nH]4)c3C[C@H]2CN1C(=O)c1ccccc1 , state whether its composite z-score is greater than or equal to -0.4.
Result block: 1

Query block: Textbook exercise: given the entry COCC(=C=CC[C@H](O)c1ccc(OCCO)cc1)C[C@H](O)COCc1ccccc1 , state whether its composite z-score is greater than or equal to -0.4.
Result block: 1
